Test: Approximate solubility in solvents by aliquot addition
Assay type: physicochemical
Settings: 2,2,2-trifluoroethanol (TFE), organic solvent or mixture, thermodynamic from solid, 2,2,2-trifluoroethanol (TFE), ambient temperature
MEASURED ATTRIBUTE: solubility

Ask: For the compound CC(=O)NC[C@H]1CN(c2ccc(-c3ccc(CNCc4cnn[nH]4)cc3)c(F)c2)C(=O)O1 [Radezolid] , give its reported solubility.
Reply: ≥ 54 mg/mL

###

Kindly state MIC for each of the entries shown.
Test system: S. aureus
Experiment: Minimum inhibitory concentrations (MICs) for S. aureus of exemplary compounds (Table 2)
Type: cell-based
Details: Staphylococcus aureus, minimum inhibitory concentrations for S. aureus; read-out: MICs
One number for each entry, in µg/mL.

Consider the reported MIC for these compounds:
- SUBSTANCE SMILES: "CC(=O)NC[C@H]1CN(c2ccc(-c3ccc(Cn4cnc5c(Cl)ncnc54)cc3)c(F)c2)C(=O)O1"
  RESULT VALUE: 1
- SUBSTANCE SMILES: "CC(=O)NC[C@H]1CN(c2ccc(-c3ccc(CNCCc4ccc(S(N)(=O)=O)cc4)cc3)c(F)c2)C(=O)O1"
  RESULT VALUE: 2
- SUBSTANCE SMILES: "CC(=O)NC[C@H]1CN(c2ccc(-c3ccc(Cn4cc(CN)nn4)cc3)c(F)c2)C(=O)O1"
  RESULT VALUE: 1

Quick batch: MIC for everything below.
1. CC(=O)NC[C@H]1CC(c2ccc(-c3ccc(CNCc4ccncc4)cc3)nc2)=NO1
2. COc1ccc2[nH]c(C(=O)NCc3ccc(-c4ccc(N5C[C@H](CNC(C)=O)OC5=O)cc4F)cc3)cc2c1
3. CC(=O)NC[C@H]1CN(c2ccc(-c3ccc(CSc4ncc[nH]4)cc3)c(F)c2)C(=O)O1
4. CC(=O)NC[C@H]1CN(c2ccc(-c3ccc(CNCC(=O)N4CCN(C(=O)OC(C)(C)C)CC4)cc3)c(F)c2)C(=O)O1

Reply:
1. 128
2. 4
3. 1
4. 4

FYI, the data here is from patent US10471046B2.
